test: Pharmacokinetics of ZA in pig serum after IV or SC infusion with or without rHuPH20 (LC-MS-MS, non-compartmental analysis); format: in vivo; conditions: female, Yorkshire, pig, serum, subcutaneous, […], Time 6 h; pig ID 60; Study Group 2; SC; ZA […]; 100 mL, 16 min; rHuPH20 0 U/mL; read-out: Zoledronic Acid Serum Concentration
PROPERTY NAME: concentration at 6 h (ng/mL)
Output spec: scalar in ng/mL, unitless text.

Need concentration at 6 h, item O=P(O)(O)C(O)(Cn1ccnc1)P(=O)(O)O
3.6

====

assay: Phase 1 Stage 1 clinical pharmacokinetics of SC ZA co-administered with rHuPH20; assay type: in vivo, human; conditions: human, serum, sc, ZA 2 mg SC + 24000 U rHuPH20; median, n=3; read-out: Tmax
PROPERTY NAME: Tmax
I'd appreciate it if you included the unit after the number.

Need Tmax, item O=P(O)(O)C(O)(Cn1ccnc1)P(=O)(O)O
1.56 h

This collection of values is drawn from patent US20090311237A1.
